Just for reference, patent US9199927B2 is where these values come from.

Target: human recombinant trypsin (r-h trypsin) (Homo sapiens (Human), UniProt P07477)
Assay: Inhibitory activity of trypsin enzyme (human recombinant trypsin, BZiPAR fluorescent substrate)
Details: human recombinant trypsin 0.088 μg/mL, 30 minutes at room temperature
pIC50: −log10 of the molar value.
MEASUREMENT_LABEL: pIC50

// solved cases for pIC50 follow
SUBSTANCE_SMILES: N=C(N)Nc1ccc(C(=O)Oc2ccc3nc(C(=O)N(CC(=O)O)Cc4csc(C(=O)O)c4)ccc3c2)cc1
MEASUREMENT_LABEL: pIC50
VALUE: 9.68

SUBSTANCE_SMILES: CN(C(=O)N(CC(=O)O)Cc1cccc(C(=O)O)c1)c1ccc(OC(=O)c2ccc(NC(=N)N)cc2)cc1Cl
MEASUREMENT_LABEL: pIC50
VALUE: 9.64

SUBSTANCE_SMILES: N=C(N)Nc1ccc(C(=O)Oc2ccc(CC(=O)N(CCC(=O)O)[C@@H](Cc3ccccc3)C(=O)O)c(Cl)c2)cc1
MEASUREMENT_LABEL: pIC50
VALUE: 9.38

SUBSTANCE_SMILES: CN(C(=O)CN(CC(=O)O)Cc1cccc(C(=O)O)c1)c1ccc(OC(=O)c2ccc(NC(=N)N)cc2)cc1Cl
MEASUREMENT_LABEL: pIC50
VALUE: 9.38

a: N=C(N)Nc1ccc(C(=O)Oc2ccc(CCC(=O)N(CC(=O)O)Cc3cccc(CC(=O)O)c3)c(Cl)c2)cc1
b: N=C(N)Nc1ccc(C(=O)Oc2ccc(CCC(=O)N(CC(=O)O)Cc3ccccc3)c(Cl)c2)cc1
Inquiry: Of a and b , whose reported pIC50 is numerically smaller? Give the label of your selection.
Reply text: a
(a: 9.31, b: 9.54)

---

Molecular target: human recombinant trypsin (r-h trypsin) (Homo sapiens (Human), UniProt P07477)
Test: Inhibitory activity of trypsin enzyme (human recombinant trypsin, BZiPAR fluorescent substrate)
Conditions: human recombinant trypsin 0.088 μg/mL, 30 minutes at room temperature
Where a name gives a salt, the structure may show the parent alone.
MEASUREMENT_LABEL: IC50 (pM)

COMPOUND: N=C(N)Nc1ccc(C(=O)Oc2ccc(CC(=O)N[C@@H](Cc3ccc(C(F)(F)F)cc3)C(=O)O)c(Cl)c2)cc1 [Example 31]
IC50 (pM): 310

A: C[C@H](C(=O)O)N(Cc1csc(C(=O)O)c1)C(=O)c1ccc2cc(OC(=O)c3ccc(NC(=N)N)cc3)ccc2n1 [Example 102]
B: N=C(N)Nc1ccc(C(=O)Oc2ccc(CC(=O)N[C@@H](Cc3ccc(O)cc3)C(=O)O)c(Cl)c2)cc1 [Example 1, hydrochloride]
Inquiry: For this pair, A and B , which shows a numerically higher IC50? Response format: the label of the selected entry.
Reply text: A

---

Target: mouse trypsin (m-trypsin)
Assay: Inhibitory activity of trypsin enzyme (mouse trypsin purified from small intestine contents, BZiPAR fluorescent substrate)
Settings: mouse trypsin diluted 1/50, BZiPAR substrate, 30 minutes at room temperature
pIC50: −log10 of the molar value.
MEASUREMENT_LABEL: pIC50

COMPOUND: N=C(N)Nc1ccc(C(=O)Oc2ccc(CCN(CC(=O)O)C(=O)Cc3cccc(C(=O)O)c3)c(Cl)c2)cc1
MEASUREMENT_LABEL: pIC50
VALUE: 9.35

COMPOUND: N=C(N)Nc1ccc(C(=O)Oc2ccc(CC(=O)N[C@@H](Cc3ccccc3)C(=O)O)c(C3CC3)c2)cc1
MEASUREMENT_LABEL: pIC50
VALUE: 9.62

A: N=C(N)Nc1ccc(C(=O)Oc2ccc(CCC(=O)N(CC(=O)O)Cc3ccccc3)c(Cl)c2)cc1
B: N=C(N)Nc1ccc(C(=O)Oc2ccc(CCC(=O)NC(Cc3ccccc3)C(=O)O)c(Cl)c2)cc1 (stereo not shown)
Inquiry: Kindly identify the item with the lower pIC50 figure among these two: A and B Kindly give the label for the entry you pick.
Reply text: B
